Task for the reader: assign each of the following binders its reported SKW3 WT vs KO anti-hKappa-FITC.
ASSAYED SYSTEM: T1, human CD4 on cells (SKW3 cells; human PBMCs) (human, UniProt P01730 26-458)
T1 construct: whole, on cells; SKW3 CD4 knockout cells served as the negative cell line; also called hCD4
EXPERIMENT: FACS primary screen, non-clonal hybridoma supernatant, SKW3 vs SKW3 CD4 knockout cells, anti-human kappa FITC
One number for each entry, in fold.

[[record]]
binder = "75110_01J17A (antibody, IgG1, V domains shown, Tested as non-clonal AlivaMab Mouse Kappa hybridoma supernatant: human variable domains and human kappa, mouse Fc) VH: EVQLVESGGGLVQPGGSLRLSCAASGFTFSSYDMHWVRQGTGKGLEWVSTIGTADDTYYPGSVKGRFTISRENAENSLYLQMNSLRAGDTAVYYCARGGDYYYGMDVWGQGTTVTVSS VL: EIVLAQSPGTLSLSPGERATLSCRASQSVYISYLAWYQQKPGQAPRLLIYGASSRATGIPDRFSGSGSGTDFTLTITRLEPEDFAVYYCQQFGSSPFTFGPGTKVDFK"
readout_kind = "SKW3 WT vs KO anti-hKappa-FITC"
recorded_value = 2.1


Kindly review the next binder as well.
Query: Data request, read-out SKW3 WT vs KO anti-hKappa-FITC, for 75110_01D24A (antibody, V domains shown, Tested as non-clonal AlivaMab Mouse Kappa hybridoma supernatant: human variable domains and human kappa, mouse Fc) VH: QVQLQQWGAGLLKPSETLSLTCAVYGGSFSGYYWSWIRQPPGKGLEWIGEINHSGSTNYNPSLKSRVTISVDTSENQFSLKLNSVTAADTAVYYCARLVNWFDPWGQGTLVTVSS VL: EIQMTQSPSSVSASVGDRVTITCRASQDISNWLAWYQQKPGKAPNLLIFAASSLQTGVPSRFSGSGSGTDFTLTISSLQPDDFATYYCQQANSFPYSFGQGTNLGIK
Reply: 2.5
